Sourced from ChEMBL document CHEMBL1828574

For each entry below, report its pIC50 value.
measuredTarget: Human immunodeficiency virus type 1 protease (Human immunodeficiency virus 1, UniProt Q72874, Q7K)
assayMethodText: Inhibition of HIV1 subtype C protease Q7K mutant expressed in Escherichia coli BL21 (DE3) pLysS using Lys-Ala-Arg-Val-Nle-p-nitro-Phe-Glu-Ala-Nle-NH2 as substrate by spectrophotometry
One number for each entry, as −log10 of the molar value.

Quick request: pIC50 for each listed item, please.
1. CC[C@H](C)[C@H](NC(=O)[C@@H](N)CO)C(=O)N[C@@H](C)C(=O)NC12NC(=O)C3(O)C4C5CC(C6C5C3C61)C42 (mixture of isomers; form 1)
2. CC[C@H](C)[C@H](NC(=O)[C@@H](N)CO)C(=O)N[C@H](C(=O)N[C@@H](CCC(=O)O)C(=O)NC12NC(=O)C3(O)C4C5CC(C6C5C3C61)C42)C(C)C (mixture of isomers)
3. CC[C@H](C)[C@H](N)C(=O)N[C@@H](C)C(=O)N[C@@H](CCC(=O)O)C(=O)NC12NC(=O)C3(O)C4C5CC(C6C5C3C61)C42 (mixture of isomers)
4. CC[C@H](C)[C@H](NC(=O)[C@@H](N)CO)C(=O)N[C@@H](C)C(=O)NC12NC(=O)C3(O)C4C5CC(C6C5C3C61)C42 (mixture of isomers; form 2)

result:
[6.30, 5.70, 6.30, 5.00]

---

measuredTarget: Human immunodeficiency virus type 1 protease (Human immunodeficiency virus 1, UniProt Q72874, Q7K)
assayMethodText: Inhibition of HIV1 subtype C protease Q7K mutant expressed in Escherichia coli BL21 (DE3) pLysS using Lys-Ala-Arg-Val-Nle-p-nitro-Phe-Glu-Ala-Nle-NH2 as substrate by spectrophotometry
Where a SMILES comes first, the peptide text is derived from it. The star is where a group is joined. X1 = Oc1cccc(N*)c1
For each entry below, report its IC50 value.
Answer format reminder: number followed by unit.

Solved cases below.
>>> observedmeasurement("COC(=O)N[C@H](C(=O)N[C@@H](Cc1ccccc1)[C@@H](O)CN(Cc1ccc(-c2ccccn2)cc1)NC(=O)[C@@H](NC(=O)OC)C(C)(C)C)C(C)(C)C")
"4 nM"
>>> observedmeasurement("CC[C@H](C)[C@H](NC(=O)[C@@H](N)CO)C(=O)N[C@@H](C)C(=O)N[C@@H](CCC(=O)O)C(=O)NC12NC(=O)C3(O)C4C5CC(C6C5C3C61)C42 (mixture of isomers)")
"78 nM"
>>> observedmeasurement("CC[C@H](C)[C@H](NC(=O)[C@@H](N)CO)C(=O)N[C@@H](C)C(=O)N[C@@H](CCC(N)=O)C(=O)NC12NC(=O)C3(O)C4C5CC(C6C5C3C61)C42 (mixture of isomers)")
"5000 nM"

Briefly, IC50 measured for CC[C@H](C)[C@H](NC(=O)[C@@H](N)CO)C(=O)N[C@@H](C)C(=O)N[C@@H](CCC(=O)O)C(=O)Nc1cccc(O)c1 (H-SIAE-X1) : 10000 nM
